Hey, just so you know, these numbers are from ChEMBL document CHEMBL1132751.

The entries below are paired with their reported MIC.
- Tested on: Pseudomonas aeruginosa
- run-description: In vitro antibacterial activity was determined against ceftazidime- resistant Pseudomonas aeruginosa AKR17.
- Type: functional
Output spec: scalar in µg/mL, unitless text.

- smiles-notation: "C[C@@H](O)[C@H]1C(=O)N2C(C(=O)O)=C(S[C@@H]3CN[C@H](CSc4ccccc4)C3)[C@H](C)[C@H]12"
  MIC, µg/mL: 50

Write down the reported MIC of C[C@@H](O)[C@H]1C(=O)N2C(C(=O)O)=C(S[C@@H]3CN[C@H](COc4ccc(CN)cc4)C3)[C@H](C)[C@H]12 , test system: Pseudomonas aeruginosa. 12.5

Next up: C[C@@H](O)[C@H]1C(=O)N2C(C(=O)O)=C(S[C@@H]3CN[C@H](CCc4ccc(CN)cc4)C3)[C@H](C)[C@H]12 6.25

Next up: C[C@@H](O)[C@H]1C(=O)N2C(C(=O)O)=C(S[C@@H]3CN[C@H](CSc4ccc(CN)cc4)C3)[C@H](C)[C@H]12 3.13
